Molecular target: T1, CD3ε homodimer protein (human, UniProt P07766 23-126, limits assumed, sulfo-tag or biotin label in some ECL assays)
T1 construct: also called human CD3ε homodimer protein; CD3 (CD3ε)
T1 sequence (P07766 23-126 limits assumed): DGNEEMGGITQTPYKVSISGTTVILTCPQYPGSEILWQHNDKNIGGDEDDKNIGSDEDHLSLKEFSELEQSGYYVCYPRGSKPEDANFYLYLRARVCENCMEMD
Test: SPR, CD3ε homodimer on chip;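 further: biacore SPR with antibody variants flowed as analyte over amine-coupled CD3ε homodimer on a CM chip, bound amount of each single-residue H chain variant over that of parent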
Reported ratio of amounts bound vs CE115HA000 values for the following binders.
Give your answer as a number; write no unit.

// known answers, use as guide
{"binder": "CE115HA000 D101V (antibody, name in Kabat numbering, V domains shown) VH: QVQLVESGGGVVQPGRSLRLSCAASGFTFSNAWMHWVRQAPGKGLEWVAQIKAKSNNYATYYAESVKGRFTISRDDSKNSLYLQMNSLKTEDTAVYYCRYVHYGAYYGVVAWGQGTTVTVSS VL: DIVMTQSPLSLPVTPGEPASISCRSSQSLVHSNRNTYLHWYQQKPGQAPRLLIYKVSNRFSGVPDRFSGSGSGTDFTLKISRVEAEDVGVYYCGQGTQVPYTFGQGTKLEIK", "ratio of amounts bound vs CE115HA000": 1.33}
{"binder": "CE115HA000 N31Y (antibody, name in Kabat numbering, V domains shown) VH: QVQLVESGGGVVQPGRSLRLSCAASGFTFSYAWMHWVRQAPGKGLEWVAQIKAKSNNYATYYAESVKGRFTISRDDSKNSLYLQMNSLKTEDTAVYYCRYVHYGAYYGVDAWGQGTTVTVSS VL: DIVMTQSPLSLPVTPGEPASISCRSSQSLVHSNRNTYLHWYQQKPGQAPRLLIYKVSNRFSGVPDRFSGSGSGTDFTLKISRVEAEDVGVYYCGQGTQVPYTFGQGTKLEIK", "ratio of amounts bound vs CE115HA000": 0.64}

Measured ratio of amounts bound vs CE115HA000 of CE115HA000 G100bF (antibody, name in Kabat numbering, V domains shown) VH: QVQLVESGGGVVQPGRSLRLSCAASGFTFSNAWMHWVRQAPGKGLEWVAQIKAKSNNYATYYAESVKGRFTISRDDSKNSLYLQMNSLKTEDTAVYYCRYVHYGAYYFVDAWGQGTTVTVSS VL: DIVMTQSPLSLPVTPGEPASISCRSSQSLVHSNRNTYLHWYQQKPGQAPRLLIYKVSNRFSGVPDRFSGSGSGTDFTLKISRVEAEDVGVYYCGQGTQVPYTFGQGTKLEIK : 0.3

meta.source: patent US20220040297A1
